The measured values listed here are drawn from patent US10358436B2.

Molecular target: Aurora A (Homo sapiens (Human), UniProt O14965)
Sequence (O14965 whole entry): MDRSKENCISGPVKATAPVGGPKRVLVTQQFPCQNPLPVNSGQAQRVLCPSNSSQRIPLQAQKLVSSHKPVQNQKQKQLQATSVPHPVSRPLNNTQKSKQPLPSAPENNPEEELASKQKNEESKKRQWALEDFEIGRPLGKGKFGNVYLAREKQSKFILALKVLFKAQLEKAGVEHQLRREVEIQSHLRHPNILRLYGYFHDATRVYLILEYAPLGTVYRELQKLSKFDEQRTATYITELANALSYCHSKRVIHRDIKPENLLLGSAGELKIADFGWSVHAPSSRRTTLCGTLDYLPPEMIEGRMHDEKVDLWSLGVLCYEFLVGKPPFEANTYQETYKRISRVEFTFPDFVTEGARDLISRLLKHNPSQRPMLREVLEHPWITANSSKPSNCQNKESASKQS
Test: Aurora A inhibition assay (Z-Lyte)
Type: biochemical
VALUE_KIND: inhibition at 1 µM

COCCN1C(=O)[C@@]2(C[C@H]2c2ccc3c(/C=C/c4ccc(CN(C)C)cc4)n[nH]c3c2)c2ccccc21 [Example A131, 2,2,2-trifluoroacetate]: > 50%
Cc1ccc2c(c1)[C@]1(C[C@H]1c1ccc3c(-c4ccc(N5CCN(C)CC5)cc4)n[nH]c3c1)C(=O)N2 (relative stereo) [Example A173, 2,2,2-trifluoroacetate]: < 50%

The compound listed as COc1ccc2c(c1)[C@]1(C[C@H]1c1ccc3c(-c4ccc(N5CCOCC5)nc4)n[nH]c3c1)C(=O)N2 (relative stereo) shows inhibition at 1 µM equal to < 50%

* * *

Target: Aurora A (Homo sapiens (Human), UniProt O14965)
Experiment: Aurora A inhibition assay (Z-Lyte)
Assay type: biochemical
Counter-ions that a name gives are not always drawn.
Below: a set of entries, each annotated with reported inhibition at 1 µM.

# annotated cases, reported inhibition at 1 µM shown
COc1ccc2c(c1)[C@]1(C[C@H]1c1ccc3c(/C=C/c4ccc(N5CCOCC5)nc4)n[nH]c3c1)C(=O)N2 (relative stereo) [Example A213, 2,2,2-trifluoroacetate]: > 50%
COc1ccc2c(c1)[C@]1(C[C@H]1c1ccc3c(-c4ccc(N5CCN(C(C)C)CC5)cc4)n[nH]c3c1)C(=O)N2 (relative stereo): < 50%

inhibition at 1 µM for Aurora A (Homo sapiens (Human), UniProt O14965) with input CN1C(=O)[C@@]2(C[C@H]2c2ccc3c(/C=C/c4ccc(CN5CCOCC5)cc4)n[nH]c3c2)c2ccccc21 (relative stereo) [Example A87, 2,2,2-trifluoroacetate] equals > 50%

Record COc1ccc2c(c1)[C@]1(C[C@H]1c1ccc3c(-c4ccc5c(c4)CNCC5)n[nH]c3c1)C(=O)N2 [Example A71, 2,2,2-trifluoroacetate salt] / Aurora A (Homo sapiens (Human), UniProt O14965), inhibition at 1 µM recorded as < 50%

Hey, Aurora A (Homo sapiens (Human), UniProt O14965) data for CCN1CCN(c2ccc(/C=C/c3n[nH]c4cc([C@@H]5C[C@@]56C(=O)Nc5ccc(OC)cc56)ccc34)cc2)CC1 [Example A187, 2,2,2-trifluoroacetate] : inhibition at 1 µM came out at > 50%

Entry O=C1Nc2ncc(Br)cc2[C@]12C[C@H]2c1ccc2c(/C=C/c3cccnc3)n[nH]c2c1 (relative stereo) under Aurora A (Homo sapiens (Human), UniProt O14965) had inhibition at 1 µM of < 50%

Entry COc1ccc2c(c1)[C@]1(C[C@H]1c1ccc3c(C#Cc4cccnc4)n[nH]c3c1)C(=O)N2 (relative stereo) under Aurora A (Homo sapiens (Human), UniProt O14965) had inhibition at 1 µM of < 50%

Tested system Aurora A (Homo sapiens (Human), UniProt O14965); inhibition at 1 µM recorded for CN1CCN(c2ccc(-c3n[nH]c4cc([C@@H]5C[C@@]56C(=O)Nc5ccc(OC(F)F)cc56)ccc34)cn2)CC1 (relative stereo) was < 50%

Observed inhibition at 1 µM on Aurora A (Homo sapiens (Human), UniProt O14965), entry CCN1CCN(c2ccc(/C=C/c3n[nH]c4cc([C@@H]5C[C@@]56C(=O)Nc5ccc(OC)cc56)ccc34)cc2)CC1 (relative stereo) [Example A188, 2,2,2-trifluoroacetate] , equals > 50%

* * *

The entries below are paired with their reported inhibition at 1 µM.
Biological target: Aurora A (Homo sapiens (Human))
Experiment: Aurora A inhibition assay (Z-Lyte)
Assay type: biochemical
Counter-ions that a name gives are not always drawn.

# count of solved cases: 10
COc1ccc2c(c1)[C@]1(C[C@H]1c1ccc3c(/C=C/c4ccc(N5CCN(C(C)C)CC5)cc4)n[nH]c3c1)C(=O)N2 (relative stereo) [Example A189, 2,2,2-trifluoroacetate]: > 50%
C[C@@H]1CCC[C@H](C)N1Cc1ccc(/C=C/c2n[nH]c3cc([C@@H]4C[C@@]45C(=O)Nc4ccccc45)ccc23)cc1 [Example A201, 2,2,2-trifluoroacetate]: > 50%
CN1CCN(c2ccc(-c3n[nH]c4cc([C@@H]5C[C@@]56C(=O)Nc5ccc(Br)cc56)ccc34)cn2)CC1 (relative stereo): < 50%
CN1CCN(Cc2ccc(-c3n[nH]c4cc([C@@H]5C[C@@]56C(=O)Nc5ccccc56)ccc34)cc2)CC1 (relative stereo): < 50%
O=C1Nc2ccc(F)cc2[C@]12C[C@H]2c1ccc2c(/C=C/c3ccc(CN4CCOCC4)cc3)n[nH]c2c1 [Example A220]: > 50%
COc1ccc2c(c1)[C@]1(C[C@H]1c1ccc3c(I)n[nH]c3c1)C(=O)N2: < 50%
CN1CCN(c2ccc(/C=C/c3n[nH]c4cc([C@@H]5C[C@@]56C(=O)N(C)c5ccccc56)ccc34)cn2)CC1 [Example A110, bis(2,2,2-trifluoroacetate)]: > 50%
COc1ccc2c(c1)[C@]1(C[C@H]1c1ccc3c(-c4ccc(OCCN5CCCCC5)cc4)n[nH]c3c1)C(=O)N2 [Example A67, 2,2,2-trifluoroacetate salt]: < 50%
O=C1Nc2ccccc2[C@]12C[C@H]2c1ccc2c(/C=C/c3cccnc3)n[nH]c2c1 (relative stereo) [Example A28]: > 50%
CN1C(=O)[C@@]2(C[C@H]2c2ccc3c(/C=C/c4ccc(CN5CCCC5)cc4)n[nH]c3c2)c2ccccc21 [Example A115, 2,2,2-trifluoroacetate]: < 50%

Next, consider the following molecule.
Lab book: inhibition at 1 µM of COc1ccc2c(c1)[C@]1(C[C@H]1c1ccc3c(/C=C/c4ccc(N5CCN(C)CC5)cc4)n[nH]c3c1)C(=O)N2 [Example A175, 2,2,2-trifluoroacetate] noted as < 50%

* * *

Target: Aurora A (Homo sapiens (Human))
Assay: Aurora A inhibition assay (Z-Lyte)
Assay type: biochemical
Each entry below carries its recorded inhibition at 1 µM.

COc1ccc2c(c1)[C@]1(C[C@H]1c1ccc3c(-c4ccc(N5CCN(C)CC5)nc4)n[nH]c3c1)C(=O)N2 (relative stereo) [Example A13]: < 50%
COc1ccc2c(c1)[C@]1(C[C@H]1c1ccc3c(C#Cc4ccc(CN5CCN(C)CC5)cc4)n[nH]c3c1)C(=O)N2 (relative stereo) [Example A145, bis(2,2,2-trifluoroacetate)]: < 50%
COc1ccc2c(c1)[C@]1(C[C@H]1c1ccc3c(-c4ccc(CO)cc4)n[nH]c3c1)C(=O)N2 (relative stereo) [Example A45, 2,2,2-trifluoroacetate]: < 50%
O=C1Nc2ccccc2[C@]12C[C@H]2c1ccc2c(/C=C/c3ccc(OCCN4CCOCC4)cc3)n[nH]c2c1 [Example A204, 2,2,2-trifluoroacetate]: > 50%
O=C1Nc2ccccc2[C@]12C[C@H]2c1ccc2c(/C=C/c3ccc4c(c3)CNCCO4)n[nH]c2c1 [Example A113, 2,2,2-trifluoroacetate]: > 50%
COc1ccc2c(c1)[C@@]1(C[C@@H]1c1ccc3c(-c4ccc(N5CCN(C)CC5)nc4)n[nH]c3c1)C(=O)N2 [Example A15]: < 50%

For this compound ( CN1CCN(c2ccc(/C=C/c3n[nH]c4cc([C@@H]5C[C@@]56C(=O)Nc5ccccc56)ccc34)cn2)CC1 (relative stereo) [Example A157] ), measured inhibition at 1 µM is > 50%

inhibition at 1 µM in this record for COc1ccc2c(c1)[C@]1(C[C@H]1c1ccc3c(-c4ccnc(N5CCN(C)CC5)c4)n[nH]c3c1)C(=O)N2 (relative stereo) [Example A37] : < 50%

inhibition at 1 µM reading for COc1ccc2c(c1)[C@]1(C[C@H]1c1ccc3c(-c4ccc(N5CCNCC5)nc4)n[nH]c3c1)C(=O)N2 (relative stereo) [Example A21] : < 50%

Input COc1ccc2c(c1)[C@]1(C[C@H]1c1ccc3c(/C=C/c4cccc(CN(C)C)c4)n[nH]c3c1)C(=O)N2 (relative stereo) [Example A135, 2,2,2-trifluoroacetate] . Output inhibition at 1 µM: > 50%

// field: inhibition at 1 µM; key: CN(C)Cc1ccc(/C=C/c2n[nH]c3cc([C@@H]4C[C@@]45C(=O)Nc4ccc(OC(F)F)cc45)ccc23)cc1 (relative stereo) [Example A214, 2,2,2-trifluoroacetate] ; value = > 50%

* * *

inhibition at 1 µM by entry:
Target: UniProt:O14965
Test: Aurora A inhibition assay (Z-Lyte)
Assay type: biochemical

COc1ccc2c(c1)[C@]1(C[C@H]1c1ccc3c(-c4cccc(CO)c4)n[nH]c3c1)C(=O)N2 (relative stereo) [Example A43, 2,2,2-trifluoroacetate]: < 50%

Short answer for CN1CCN(c2ccc(-c3n[nH]c4cc([C@@H]5C[C@@]56C(=O)Nc5ccc(F)cc56)ccc34)cn2)CC1 (relative stereo) : inhibition at 1 µM was > 50%

Field inhibition at 1 µM (entry O=C1Nc2ccc(F)cc2[C@]12C[C@H]2c1ccc2c(/C=C/c3ccc(CN4CCOCC4)cc3)n[nH]c2c1 (relative stereo) [Example A219] ) reads > 50%

For this molecule ( COc1ccc2c(c1)[C@]1(C[C@H]1c1ccc3c(-c4ccc(N5CCC(N(C)C)CC5)cc4)n[nH]c3c1)C(=O)N2 [Example A120, 2,2,2-trifluoroacetate] ), measured inhibition at 1 µM is < 50%
